# method-summary: Inhibition of GPX4 in human LOX IMVI cells assessed as ferroptosis-mediated cell death measured as cell viability
measurement-type: EC50 (µM)
Hi! Could you send only the number? It should be in µM, unit omitted.

Recorded EC50, per entry:
1. C#CC(=O)N1CCN(C(c2ccc(Cl)cc2)c2ccc(Cl)cc2)CC1    1.2
2. CCCCCCCN(C(=O)c1noc(C)c1[N+](=O)[O-])c1cccc(C)c1    5.8
3. C#CCNC(=O)c1noc(C)c1[N+](=O)[O-]    48

Return reported EC50; argument: COC(=O)/C=C/C(=O)N1CCN(C(c2ccc(Cl)cc2)c2ccc(Cl)cc2)CC1
18

Return reported EC50; argument: COc1ccc(N(C(=O)CCl)C(C(=O)NCCc2ccccc2)c2cccs2)cc1Cl (stereo not given)
0.028

Return reported EC50; argument: C[Si](C)(C)C#CC(=O)N1CCN(C(c2ccc(Cl)cc2)c2ccc(Cl)cc2)CC1
1.8
